Recorded measurements of z-score, one per entry
# assay_overview: PSAC antagonists in infected red cells, primary screen, cell-based, P. falciparum Indochina, OD700, 2 h (AID 1155);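 also: lysis reports solute entry through the parasite surface anion channel PSAC; channel blockers reduce lysis of infected cells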
# condition_details: P. falciparum Indochina infected erythrocytes, osmotic lysis OD700; higher = more signal, called active from +8 up or from −8 down
Respond with the number and no other words.

# example entries with known answers
COc1ccc(COC(=O)NN=C2C[C@@H](O)[C@@H](O)[C@@H]3[C@@H]4C(=O)N(C[C@@H]5CCCO5)C(=O)[C@@H]4CC[C@@H]23)cc1; 0.415
CCN1C(=O)[C@H]2[C@H]3[C@H](O)[C@H](O)CC(=NOCC(C)C)[C@H]3CC[C@H]2C1=O; -0.0288
COC(=O)CC=C[C@@H](C)[C@@H](C=NOC[C@@H](O)COCc1ccco1)NS(=O)(=O)c1ccc(C)cc1; 0.418

Q: Report z-score for CC(C)CON=C1C[C@@H](O)[C@@H](O)[C@@H]2[C@@H]3C(=O)N(Cc4ccccc4)C(=O)[C@@H]3CC[C@H]12 please.
Ans: -1.19

====

# Test system: glycogen synthase kinase-3 (GSK3A per assay name; protocol says GSK3B)
# assay_overview: GSK3 binders on small-molecule microarrays, primary screen, biochemical, small-molecule microarray, 635 nm fluorescence, GSK3A (AID 1103); also: the record names both GSK3A and GSK3B
# condition_details: small-molecule microarray binding, fluorescence 635 nm; higher = more signal
Use 0.8 as the dividing line for composite z-score, with the line itself on the y side and lower values as n.

Q: Entry COc1ccc(O[C@H]2C=C[C@@H](c3ccccc3)O[C@@H]2CON=C2c3cc(OC)ccc3O[C@H](c3cccc(OC)c3)[C@H]2O)cc1 : is its composite z-score no less than 0.8?
Ans: n

Q: Entry O=C1C=C[C@@H](O)[C@@H]2[C@@H]3C(=O)N(Cc4ccccc4)C(=O)[C@@H]3CC[C@@H]12 : is its composite z-score no less than 0.8?
Ans: n

====

Recorded measurements of z-score, one per entry
# assay_overview: MM1S myeloma cell viability, profiling panel, resazurin fluorescence, basal, 24 h, PK04 Diversity Set (AID 1174);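 also: MM1S multiple myeloma cell line; test concentration not given here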
# condition_details: higher = more signal, called active from +8 up or from −8 down
Respond with the number and no other words.

# example entries with known answers
O=C1[C@H]2[C@H]3[C@H](O)[C@H](O)CC(=NOCc4ccccc4)[C@@H]3CC[C@H]2C(=O)N1c1cccc(Oc2ccccc2)c1; -0.857
C#CCCCON=C1C[C@@H](O)[C@@H](O)[C@@H]2[C@@H]3C(=O)N(C[C@@H]4CCCO4)C(=O)[C@@H]3CC[C@@H]12; 0.0893
O=C(NN=C1C[C@@H](O)[C@@H](O)[C@@H]2[C@@H]3C(=O)N(c4ccc(F)cc4F)C(=O)[C@@H]3CC[C@H]12)OCc1ccccc1; 1.23
CCN(CC)CC(O)CN1CCCCc2nc(C)c(C)cc21 (stereo not given); 0.423
O=C1C=C[C@@H](O)[C@@H]2[C@@H]3C(=O)N(C4CCCCC4)C(=O)[C@@H]3CC[C@@H]12; -1.45
CC(=O)OC[C@H]1O[C@@H](ON=C(C)CCN2CCCCc3nc(C)c(C)cc32)[C@H](OC(C)=O)[C@@H](OC(C)=O)[C@@H]1OC(C)=O; 0.382

Q: Report z-score for CC(C)=CCCC(C)=CCON=C1C[C@@H](O)[C@@H](O)[C@@H]2[C@@H]3C(=O)N(c4cccc(Oc5ccccc5)c4)C(=O)[C@@H]3CC[C@H]12 please.
Ans: 0.674

Q: Report z-score for CON=C[C@@H](OC)[C@H](C)C=CCC(=O)OC please.
Ans: 0.293

Q: Report z-score for CO[C@H]1COC(=O)CCC[C@H](C)[C@@H](OC)COC(=O)CC=C[C@@H]1C please.
Ans: -1.18

====

# assay_overview: E. coli DRC41 culture turbidity changes, primary screen, E. coli filamentation inducer project, strain DRC41, OD650, 48 h (AID 1152);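 also: E. coli MC1000 strain DRC41 lacking acrAB efflux pump and sulA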
# condition_details: E. coli DRC41 (acrAB sulA), higher = more signal, called active from +8 up or from −8 down
readout_name: z-score
Respond with the number and no other words.

# example entries with known answers
CCOC(=O)[C@H](Cc1ccccc1)NC(=O)CCC1CC(OC(=O)NCc2cccc3ccccc23)CC2(CCCC(COC(=O)NCCOc3ccccc3)O2)O1 (stereo partly drawn); -1.98
COC(=O)[C@H](C)NC(=O)CCC1CC(OC(=O)NCc2cccc3ccccc23)CC2(CCCC(COC(=O)NCCCN3CCCC3=O)O2)O1 (stereo partly drawn); -3.55

Continue with the compound presented below.
Q: Report z-score for CC(C)=CCCC(C)=CCON=C1C[C@@H](O)[C@@H](O)[C@@H]2[C@@H]3C(=O)N(c4cccc(Oc5ccccc5)c4)C(=O)[C@@H]3CC[C@H]12 please.
Ans: 0.349

====

# assay_overview: splicing luciferase reporter signal modulators, primary screen, spliceosome inhibition project, cell-based, HEK293, splice +/- reporter (AID 1101);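 also: HEK293 cells carrying a splicing-competent luciferase reporter gene; test concentration not given here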
# condition_details: luminescence, 24 h, higher = more signal, called active from +8 up or from −8 down
readout_name: z-score
Respond with the number and no other words.

# example entries with known answers
COC(=O)[C@H](C)NC(=O)CCC1CC(OC(=O)NCc2cccc3ccccc23)CC2(CCCC(COC(=O)NCCOc3ccccc3)O2)O1 (some centres undefined); -0.834
COC(=O)[C@H](C)NC(=O)CCC1CC(OC(=O)NCc2ccc3c(c2)OCO3)CC2(CCCC(COC(=O)NCCCN3CCCC3=O)O2)O1 (some centres undefined); 0.245
CCOC(=O)[C@H](CC(C)C)NC(=O)CCC1CC(OC(=O)NCc2ccc3c(c2)OCO3)CC2(CCCC(COC(=O)NCCOc3ccccc3)O2)O1 (some centres undefined); -0.149

Continue with the molecule presented below.
Q: Report z-score for OC[C@H]1O[C@H](C#Cc2ccccc2)C=C[C@@H]1O please.
Ans: 0.072

====

Recorded measurements of z-score, one per entry
# assay_overview: adipocyte viability effects, profiling panel, cell-based, 3T3-L1 adipocytes, calcein-AM fluorescence, 48 h, basal (AID 1163); also: test concentration not given here
# condition_details: 3T3-L1 adipocytes viability, higher = more signal

# example entries with known answers
COCOc1ccc(Br)cc1C(=O)C=Cc1ccc2c(c1)OCO2; -0.342
CC(C)(C)N1C(=O)[C@H]2[C@@H]3C(=CC[C@H]2C1=O)C(=O)[C@H]1O[C@H]1[C@H]3O; -3.02
COc1ccc(OC[C@@H]2CC3[C@@H](c4ccc(Br)cc4)[C@H](C)CC[C@H]3C(=O)O2)cc1 (stereo partly specified); 0.0081
CC(=O)OC[C@H]1O[C@H](CC=NO[C@@H](C)c2cn([C@H](CO)Cc3ccccc3)nn2)C=C[C@@H]1OC(C)=O; -0.0628
COC(=O)[C@@H]1CC[C@H](C)[C@@H](c2ccc(Br)cc2)N1C[C@H](O)CN=[N+]=[N-]; 0.878

Q: Report z-score for COc1ccc(O[C@H]2C=C[C@@H](c3ccccc3)O[C@@H]2COC(=O)NCc2cccc3ccccc23)cc1 please.
Ans: 0.0831

Q: Report z-score for CCOC(=O)[C@H](CC(C)C)NC(=O)CCC1CC(OC(=O)NCc2ccc3c(c2)OCO3)CC2(CCCC(COC(=O)NCc3ccccc3)O2)O1 (stereo partly specified) please.
Ans: -0.654

Q: Report z-score for COC(OC)[C@@H](C)[C@H](OC)[C@@H](C)[C@H](OC)c1ccccc1 please.
Ans: 0.159

Q: Report z-score for CC(=O)OC[C@H]1O[C@H](C#CCC2CCCCC2)C=C[C@@H]1OC(C)=O please.
Ans: -0.654

Q: Report z-score for CC(C)CON=C1[C@H]2CCn3c(=O)n(C)c(=O)n3[C@H]2[C@H](O)[C@@H]2O[C@H]12 please.
Ans: 0.632

Q: Report z-score for CC(C)(C)N1C(=O)[C@H]2[C@H]3[C@H](O)[C@H](O)CC(=NNC(=O)OCc4ccccc4)[C@@H]3CC[C@H]2C1=O please.
Ans: -0.166

Q: Report z-score for CC(C)=CCCC(C)=CCON=C1C[C@@H](O)[C@@H](O)[C@@H]2[C@@H]3C(=O)N(Cc4ccc5c(c4)OCO5)C(=O)[C@@H]3CC[C@H]12 please.
Ans: 0.0614

Q: Report z-score for Cc1ccc(S(=O)(=O)N[C@@H]2COC(=O)CC=C[C@@H](C)[C@H](NS(=O)(=O)c3ccc(C)cc3)COC(=O)[C@H](C)NC(=O)CC=C[C@H]2C)cc1 please.
Ans: -0.0454

====

# assay_overview: MM1S cell viability effects, profiling panel, calcein-AM fluorescence, 48 h, basal (AID 1165);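 also: viability of MM1S multiple myeloma cells under basal unstimulated conditions; test concentration not given here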
# condition_details: higher = more signal
readout_name: z-score

# example entries with known answers
CC(=O)OC[C@H]1O[C@H](CC=NOC[C@@H](O)COCc2ccco2)C=C[C@@H]1OC(C)=O; -0.175
CCOC(=O)[C@H](Cc1ccccc1)NC(=O)CCC1CC(OC(=O)NCc2cccc3ccccc23)CC2(CCCC(COC(=O)NCCc3ccc(Cl)cc3)O2)O1 (some centres undefined); 0.248
CSCC[C@@H]1NC(=O)CC=C[C@@H](C)COC(=O)[C@H](C)COC1=O; 0.434

Continue with the compound presented below.
Q: Report z-score for COC(=O)[C@H](CCSC)NC(=O)CC=C[C@@H](C)CO please.
Ans: -1.12
